// data source = paper PMC11995211

Sequence of the target: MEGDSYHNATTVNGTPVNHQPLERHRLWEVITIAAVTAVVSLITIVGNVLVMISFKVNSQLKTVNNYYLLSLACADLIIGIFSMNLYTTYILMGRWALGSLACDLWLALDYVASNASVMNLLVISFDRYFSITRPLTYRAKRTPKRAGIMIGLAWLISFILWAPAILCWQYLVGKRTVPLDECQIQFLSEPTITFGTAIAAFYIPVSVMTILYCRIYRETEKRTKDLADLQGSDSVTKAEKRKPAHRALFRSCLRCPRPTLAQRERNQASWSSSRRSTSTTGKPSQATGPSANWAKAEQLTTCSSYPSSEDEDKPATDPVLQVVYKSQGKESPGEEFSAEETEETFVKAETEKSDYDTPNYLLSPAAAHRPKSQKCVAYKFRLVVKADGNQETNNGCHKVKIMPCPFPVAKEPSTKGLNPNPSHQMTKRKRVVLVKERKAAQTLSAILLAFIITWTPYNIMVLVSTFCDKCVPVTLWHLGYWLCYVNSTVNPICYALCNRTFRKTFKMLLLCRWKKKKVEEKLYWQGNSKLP
measured_quantity: pKi
Keep it numeric: pKi is minus log10 of the concentration in mol/L.

Query: # lookup: pKi of `NCCOCCOCCC(=O)NCCOCCOCCNc1ccccc1C(=O)N1CCC(N2CCC(Cc3ccc(S(=O)(=O)c4cccc(Cl)c4)cc3)CC2)CC1.O=C(O)C(F)(F)F`
Reply: 8.07

Query: # lookup: pKi of `NCCOCCOCCNc1ccccc1C(=O)N1CCC(N2CCC(Cc3ccc(S(=O)(=O)c4cccc(Cl)c4)cc3)CC2)CC1`
Reply: 8.07
